Measured values drawn from ChEMBL document CHEMBL4373739 for this set.

System: PC-3
Test: Antiproliferative activity against human PC3 cells incubated for 48 hrs by MTT assay
Type: functional, cell-based
Conditions: PC-3, 48 h
Measured Property: pIC50
The value called pIC50 is obtained by taking minus log10 of the concentration in mol/L.

Example results:
{"columns": ["Mol Smiles", "Measured Value"],
 "data": [
  ["C#Cc1cccc(Nc2ncnc3cc(OCCOC)c(OCCOC)cc23)c1", 5.15],
  ["O=C(/C=C/c1ccc(O)cc1)Nc1cc2c(Nc3ccc(Cl)c(Cl)c3)ncnc2s1", 6.52]
]}

Task item: Need pIC50 of O=C(/C=C/c1ccccc1)Nc1cc2c(Nc3ccc(F)c(Cl)c3)ncnc2s1 , thanks.
Reply: 6.15
